# MEASURED TARGET: Histone-lysine N-methyltransferase EHMT2 (Homo sapiens)
# EXPERIMENTAL PROTOCOL: qHTS Assay for Inhibitors of Histone Lysine Methyltransferase G9a; further: nearly all actives have a fitted effect of over 75% in size
# ASSAY CONDITIONS: G9a H3K9 monomethylation, AlphaScreen, 2 h; series mostly up to 59 µM
Screen size: about 350,000 compounds; about 31,000 (8.9%) were called active. Roughly 15% stayed inconclusive and do not appear here. The call rests on the fitted dose curve; in most records, active means well fitted inhibition curve with a large enough effect; inconclusive means small, poorly fitted or top-dose-only effect; inactive means no such curve, though single readings can be large or run the other way. The sample holds actives, similar compounds and a random draw of the others, so the mix is not that of the screen.
Returns: one label drawn from YES (active), NO (inactive)

Tell me the recorded outcome of this test for COc1cc(OC)c(C(=O)Nc2ccccc2-c2ccccc2)cc1OC .
NO

Tell me the recorded outcome of this test for N#Cc1ccc(-c2cccs2)nc1SCc1ccc(Br)cc1 .
NO

Tell me the recorded outcome of this test for CCOc1ncccc1C(=O)OCC(=O)N1c2ccccc2CC1C (centres undefined) .
NO

Tell me the recorded outcome of this test for O=C(Nc1ccccc1-c1ccccc1)c1ccccc1[N+](=O)[O-] .
NO

Tell me the recorded outcome of this test for COc1ccc(N2C(=O)CC(SC(C)C)C2=O)cc1 (centres undefined) .
NO

Tell me the recorded outcome of this test for Cc1cc(C)c2oc(C(=O)Nc3c(C(=O)Nc4ccccc4)oc4ccccc34)cc(=O)c2c1 .
NO

Tell me the recorded outcome of this test for COc1cc(OC)c(C(=O)Nc2ccc(N(C)C)cc2)cc1OC .
YES

Tell me the recorded outcome of this test for COc1ccc(/C=C2\SC(=S)N(CCC(=O)Nc3cccc(C(=O)O)c3)C2=O)cc1OC .
NO

Tell me the recorded outcome of this test for COC(=O)CC1Oc2ccccc2-n2cc(-c3ccccc3)nc21 (centres undefined) .
NO

Tell me the recorded outcome of this test for O=C(OCC(=O)c1c[nH]c2ccccc12)c1cccc(O)c1 .
NO

Tell me the recorded outcome of this test for CCOC(=O)N1CCN(C(c2cccnc2)c2ccc3cccnc3c2O)CC1 (centres undefined) .
YES

Tell me the recorded outcome of this test for COc1ccc2c(c1)CCc1c(C(=O)Nc3cc(C)ccc3O)noc1-2 .
NO

Tell me the recorded outcome of this test for CCN(CC)S(=O)(=O)c1cccc(-c2n[nH]c(=S)n2/N=C/c2ccc(C(=O)OC)cc2)c1 .
YES

Tell me the recorded outcome of this test for CCOc1ccc(NC(=O)Cn2cc(C(=O)c3ccc(C)cc3)c(=O)c3cc4c(cc32)OCCO4)cc1 .
NO

Tell me the recorded outcome of this test for CCOC(=O)N1CCN(C(=O)CSc2nc(=O)n3cccc(C)c3n2)CC1 .
NO

Tell me the recorded outcome of this test for COc1ccc(N2C(=O)C3C(C2=O)C(C(=O)c2ccccc2)N2CCCC32)cc1 (centres undefined) .
YES

Tell me the recorded outcome of this test for O=S(=O)(O)Oc1c[nH]c2ccccc12 .
YES

Tell me the recorded outcome of this test for CCC1CN(S(=O)(=O)c2cc(-c3cc(C)no3)ccc2C)c2cc(C)ccc2O1 (centres undefined) .
NO

Tell me the recorded outcome of this test for COC(=O)c1ccc(C2CC(=O)Nc3cc(OC)c(OC)cc32)cc1 (centres undefined) .
NO

Tell me the recorded outcome of this test for CCOC(=O)c1cc(C(=O)Nc2ccc(S(=O)(=O)Nc3ccc(OC)cc3)cc2)nn1C .
NO

Tell me the recorded outcome of this test for COc1ccc(N2C(=O)CC(Sc3n[nH]c(-c4ccc(C)cc4)n3)C2=O)cc1 (centres undefined) .
YES

Tell me the recorded outcome of this test for Cc1ccc(C)c(N2C(=O)N(Cc3c(F)cccc3Cl)c3ccccc3S2(=O)=O)c1 .
NO

Tell me the recorded outcome of this test for CCCOc1cccc(C(=O)Nc2cccc(NC(=O)c3ccc(C(C)(C)C)cc3)c2)c1 .
NO

Tell me the recorded outcome of this test for N#Cc1ccccc1CN1C(=O)S/C(=C/c2cccn2-c2cccc(C(=O)O)c2)C1=O .
YES

Tell me the recorded outcome of this test for O=S1(=O)CC/C(=N\Nc2ccc(F)cc2)c2ccsc21 .
YES

Tell me the recorded outcome of this test for O=C(O)c1ccccc1NC(=S)NC(NC(=O)c1ccccc1[N+](=O)[O-])C(Cl)(Cl)Cl (centres undefined) .
YES

Tell me the recorded outcome of this test for COc1ccc(C)cc1NC(=O)CSc1ccc(Cl)cc1 .
NO

Tell me the recorded outcome of this test for CN=C1C=C/C(=N/N=c2\ccn(O)cc2C)C=C1C .
YES

Tell me the recorded outcome of this test for Cc1nc2sc3c(c2c(=O)n1NC(=O)CCl)CCCC3 .
NO

Tell me the recorded outcome of this test for CC(C)(C)OC(=O)N1CCC(c2c(C(=O)N3CCc4ccccc4C3)cnn2-c2ccc(F)cc2)CC1 .
NO

Tell me the recorded outcome of this test for O=C(NC1CCCC1)C(=O)c1c[nH]c2ccccc12 .
NO

Tell me the recorded outcome of this test for CCN1CCN(C(c2cccnc2)c2cc(Cl)c3cccnc3c2O)CC1 (centres undefined) .
YES

Tell me the recorded outcome of this test for O=C(O)[C@@H](S)[C@H](S)C(=O)O .
YES

Tell me the recorded outcome of this test for COc1ccc(Cl)cc1C(=O)Nc1ccc(N(C)C(C)=O)cc1 .
NO

Tell me the recorded outcome of this test for COc1ccc(Cl)cc1NC(=O)CNc1ccccc1F .
YES

Tell me the recorded outcome of this test for CCc1ccc(/C=C2\SC(N3CCOCC3)=NC2=O)cc1 .
YES

Tell me the recorded outcome of this test for CCOC(=O)c1c(NC(=O)c2ccc(S(=O)(=O)N3CCCC(C)C3)cc2)sc2c1CCN(C(C)C)C2 (centres undefined) .
NO

Tell me the recorded outcome of this test for CC1CCN(C2=NC(=O)/C(=C/c3ccc(O)cc3)S2)CC1 .
NO

Tell me the recorded outcome of this test for C=CCn1c(SCC(=O)NCCCO)nc2sc3c(c2c1=O)CCC3 .
NO

Tell me the recorded outcome of this test for CCOc1ccc(CCNC(=O)Cn2nc(CC)n3c(cc4sc(CC)cc43)c2=O)cc1OCC .
NO

Tell me the recorded outcome of this test for COc1ccc(-c2nc(SCC(=O)N3CCCC3)n[nH]2)cc1 .
NO

Tell me the recorded outcome of this test for COC(=O)c1ccc(/C=N\n2c(C)nnc2C)cc1 .
NO

Tell me the recorded outcome of this test for COc1ccc(/C=C/C(=O)Nc2ccc3c(c2)OCCO3)cc1OC .
NO

Tell me the recorded outcome of this test for CC(=O)N1CCc2cc(Br)cc(S(=O)(=O)CCC(=O)NCCc3ccc(Cl)cc3)c21 .
NO

* * *

Could you please report measured activity, negative = inhibition for the items listed next?
# MEASURED TARGET: Histone-lysine N-methyltransferase EHMT2 (Homo sapiens) (UniProt Q96KQ7)
# Sequence (Q96KQ7 913-1193 limits assumed): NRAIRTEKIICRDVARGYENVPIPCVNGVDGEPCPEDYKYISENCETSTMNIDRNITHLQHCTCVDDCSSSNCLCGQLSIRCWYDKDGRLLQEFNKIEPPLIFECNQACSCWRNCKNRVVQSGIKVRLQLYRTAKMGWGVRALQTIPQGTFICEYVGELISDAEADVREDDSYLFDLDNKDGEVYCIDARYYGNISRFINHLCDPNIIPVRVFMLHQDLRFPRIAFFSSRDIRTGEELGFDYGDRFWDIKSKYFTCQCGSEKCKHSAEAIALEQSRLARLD
# EXPERIMENTAL PROTOCOL: qHTS Assay for Inhibitors of Histone Lysine Methyltransferase G9a; further: nearly all actives have a fitted effect of over 75% in size; on activity, negative = inhibition: on the % scale 0 is the no-effect control and ±100 the full control effect
# ASSAY CONDITIONS: G9a H3K9 monomethylation, AlphaScreen, 2 h; series mostly up to 59 µM
The whole screen tested about 350,000 compounds, of which about 31,000 (8.9%) were called active. Another 15% or so got no clear call; they are omitted. For the sample, actives were picked, then their nearest neighbours and some compounds at random.

For this compound ( c1ccc2c(c1)CCc1snnc1-2 ), measured activity, negative = inhibition is -5.46% [at 0.501 µM] (inactive)

For this compound ( COc1ccc(OC)c(S(=O)(=O)Nc2c(C)nn(C)c2C)c1 ), measured activity, negative = inhibition is 3.63% [at 12.7 µM] (inactive)

For this compound ( Cc1ccc(NC2(C#N)C(=O)Nc3ccccc32)cc1 (stereo unspecified) ), measured activity, negative = inhibition is -25.6% [at 2.33 µM] (inactive)

For this compound ( CCCCN(C(=O)CSCC(=O)Nc1ccc(OC)cc1)c1c(N)n(CCC)c(=O)[nH]c1=O ), measured activity, negative = inhibition is 19.8% [at 2.33 µM] (inactive)

For this compound ( O=C1c2ccccc2C(=O)N1CCC#Cc1ccc2cc(C3(O)CCCCC3)oc(=O)c2c1 ), measured activity, negative = inhibition is 1.05% [at 0.501 µM] (inactive)

For this compound ( CN(CC(=O)NCc1ccc2c(c1)OCO2)CC(=O)Nc1ccc(F)c(F)c1F ), measured activity, negative = inhibition is 2.14% [at 12.7 µM] (inactive)

For this compound ( O=C(Nc1ccccc1[N+](=O)[O-])C1C(c2ccccc2)=C1c1ccccc1 ), measured activity, negative = inhibition is 24.3% [at 0.501 µM] (inactive)

For this compound ( O=C(CNS(=O)(=O)c1ccc2c(c1)OCCCO2)N1CCN(c2ccc(F)cc2)CC1 ), measured activity, negative = inhibition is 24.8% [at 12.7 µM] (inactive)

For this compound ( O=C(CSCc1ccccc1)Nc1ccccc1 ), measured activity, negative = inhibition is 2.25% [at 2.33 µM] (inactive)

For this compound ( CCC(C)NC(=O)c1ccc(NC(=O)CC2SC(N3CCCCC3)=NC2=O)cc1 (stereo unspecified) ), measured activity, negative = inhibition is -0.745% [at 12.7 µM] (inactive)

For this compound ( COc1ccc(C(=O)OC(C)C(=O)NC2CCCC2)cc1S(=O)(=O)N1CCOCC1 (stereo unspecified) ), measured activity, negative = inhibition is 22.8% [at 12.7 µM] (inactive)
